System: A549
PROCEDURE TEXT: Antiproliferative activity against human A549 cells after 72 hrs by SRB assay
Type: cell-based
CONDITION PARAMETERS: Homo sapiens, A549, 72 h
QUANTITY KIND: IC50

I would be grateful if you could share the reported IC50 for COc1cc(COC(=O)c2ccc(C(F)(F)F)nc2)c(-c2c(COC(=O)c3ccc(C(F)(F)F)nc3)cc(OC)c3c2OCO3)c2c1OCO2 . > 100 µM

Try this molecule too: CCCC(=O)OCc1cc(OC)c2c(c1-c1c(COC(=O)CCC)cc(OC)c3c1OCO3)OCO2 > 100 µM

Then this molecule: COc1c(Br)c(C(=O)O)c(-c2c3c(c(OC)c(Br)c2C(=O)O)OCO3)c2c1OCO2 > 100 µM

// same read-out, input: COc1ccc(C(=O)OCc2cc(OC)c3c(c2-c2c(COC(=O)c4ccc(OC)c(OC)c4)cc(OC)c4c2OCO4)OCO3)cc1OC > 100 µM

Same read-out for CCC(=O)OCc1cc(OC)c2c(c1-c1c(COC(=O)CC)cc(OC)c3c1OCO3)OCO2 ? > 100 µM

Let us now turn to CCCCCCCCCCCC(=O)OCc1cc(OC)c2c(c1-c1c(COC(=O)CCCCCCCCCCC)cc(OC)c3c1OCO3)OCO2 > 100 µM

Next molecule: COC(=O)c1c(Br)c(OC)c2c(c1-c1c3c(c(OC)c(Br)c1C(=O)OC)OCO3)OCO2 > 100 µM

Also COc1cc(COC(=O)CC(C)C)c(-c2c(COC(=O)CC(C)C)cc(OC)c3c2OCO3)c2c1OCO2 , if possible. > 100 µM

Would you mind doing COc1cc(COC(=O)c2ccc(C)cc2)c(-c2c(COC(=O)c3ccc(C)cc3)cc(OC)c3c2OCO3)c2c1OCO2 as well? > 100 µM

Then this molecule: COc1cc(COC(=O)c2ccc(C#N)cc2)c(-c2c(COC(=O)c3ccc(C#N)cc3)cc(OC)c3c2OCO3)c2c1OCO2 > 100 µM

# repeat for COc1cc(COC(=O)C=C(C)C)c(-c2c(COC(=O)C=C(C)C)cc(OC)c3c2OCO3)c2c1OCO2 > 100 µM

Further, for COc1c2c(c3c(c1Br)c(=O)oc(=O)c1c(Br)c(OC)c4c(c13)OCO4)OCO2 ? > 100 µM

COc1cc(COC(=O)c2ccc3c(c2)OCO3)c(-c2c(COC(=O)c3ccc4c(c3)OCO4)cc(OC)c3c2OCO3)c2c1OCO2 ? > 100 µM

Entry C/C=C/C(=O)OCc1cc(OC)c2c(c1-c1c(COC(=O)/C=C/C)cc(OC)c3c1OCO3)OCO2 please > 100 µM

Input COc1c(Br)c(COC(=O)c2ccccc2)c(-c2c(COC(=O)c3ccccc3)c(Br)c(OC)c3c2OCO3)c2c1OCO2 > 100 µM

Follow-up item: COc1cc(C(=O)OCc2cc(OC)c3c(c2-c2c(COC(=O)c4cc(OC)c(OC)c(OC)c4)cc(OC)c4c2OCO4)OCO3)cc(OC)c1OC > 100 µM

Request: CCCC(C)C(=O)OCc1cc(OC)c2c(c1-c1c(COC(=O)C(C)CCC)cc(OC)c3c1OCO3)OCO2 (racemic) > 100 µM

# iterate: COc1cc(COC(=O)C(C)C)c(-c2c(COC(=O)C(C)C)cc(OC)c3c2OCO3)c2c1OCO2 > 100 µM

Another molecule to look at: COc1cc(COC(=O)c2ccccc2)c(-c2c(COC(=O)c3ccccc3)cc(OC)c3c2OCO3)c2c1OCO2 > 100 µM

Proceed to COc1c(Br)c(CO)c(-c2c(CO)c(Br)c(OC)c3c2OCO3)c2c1OCO2 > 100 µM

Can you check C/C=C/C=C/C(=O)OCc1cc(OC)c2c(c1-c1c(COC(=O)/C=C/C=C/C)cc(OC)c3c1OCO3)OCO2 next? > 100 µM

Field entry: COc1cc(COC(=O)C(C)(C)C)c(-c2c(COC(=O)C(C)(C)C)cc(OC)c3c2OCO3)c2c1OCO2 > 100 µM

Ok, now COc1cc(COC(=O)C2CCCCC2)c(-c2c(COC(=O)C3CCCCC3)cc(OC)c3c2OCO3)c2c1OCO2 > 100 µM

Param item: COc1cc(COC(=O)c2ccc([N+](=O)[O-])cc2)c(-c2c(COC(=O)c3ccc([N+](=O)[O-])cc3)cc(OC)c3c2OCO3)c2c1OCO2 > 100 µM

Can you handle COc1cc(CO)c(-c2c(CO)cc(OC)c3c2OCO3)c2c1OCO2 next? > 100 µM

Further, for COc1cc(COC(=O)CCC(=O)O)c(-c2c(COC(=O)CCC(=O)O)cc(OC)c3c2OCO3)c2c1OCO2 ? > 100 µM

Moving on to CCC(C)C(=O)OCc1cc(OC)c2c(c1-c1c(COC(=O)C(C)CC)cc(OC)c3c1OCO3)OCO2 (racemic) > 100 µM

Try this molecule next: COC(=O)c1c(I)c(OC)c2c(c1-c1c3c(c(OC)c(I)c1C(=O)OC)OCO3)OCO2 > 100 µM

Also need COc1c(Br)c(CO)c(-c2c3c(c(OC)c(Br)c2C(=O)O)OCO3)c2c1OCO2 , thanks. > 100 µM

Further, for COc1cc(COC(C)=O)c(-c2c(COC(C)=O)cc(OC)c3c2OCO3)c2c1OCO2 ? > 100 µM

Please do the same for CCCCC(=O)OCc1cc(OC)c2c(c1-c1c(COC(=O)CCCC)cc(OC)c3c1OCO3)OCO2 as well. > 100 µM

Now consider COc1ccc(C(=O)OCc2cc(OC)c3c(c2-c2c(COC(=O)c4ccc(OC)cc4)cc(OC)c4c2OCO4)OCO3)cc1 and answer again. > 100 µM

Now the same for COc1cc(COC(=O)C2CCCC2)c(-c2c(COC(=O)C3CCCC3)cc(OC)c3c2OCO3)c2c1OCO2 > 100 µM
